Molecular target: hAT1R (Homo sapiens)
Sequence (P30556 1-359): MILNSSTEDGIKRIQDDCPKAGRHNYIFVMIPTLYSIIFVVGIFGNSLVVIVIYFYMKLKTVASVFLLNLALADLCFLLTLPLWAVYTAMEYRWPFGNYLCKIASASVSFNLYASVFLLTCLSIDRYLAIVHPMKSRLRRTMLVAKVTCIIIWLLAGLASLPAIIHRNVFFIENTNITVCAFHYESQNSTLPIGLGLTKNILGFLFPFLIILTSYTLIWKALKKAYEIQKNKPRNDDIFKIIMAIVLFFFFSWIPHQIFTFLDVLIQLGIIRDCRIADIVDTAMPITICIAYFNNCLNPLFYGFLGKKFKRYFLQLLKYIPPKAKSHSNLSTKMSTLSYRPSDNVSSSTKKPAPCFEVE
Assay: FLIPR calcium flux assay, Part II: antagonist activity against Angiotensin II
Assay type: cell-based
Settings: read-out: hAT1R Antagonist IC50 Ave
Residues, ends and D or L forms follow the SMILES beside them.
measurement.type: IC50 (nM)
Output spec: scalar in nM, unitless text.

Consider the following illustrative entries.
Form field IC50, entry CNCC(=O)N[C@@H](CCCNC(=N)N)C(=O)N[C@H](C(=O)N[C@@H](Cc1ccc(O)cc1)C(=O)N[C@H](C(=O)N[C@@H](Cc1c[nH]cn1)C(=O)N1CCC[C@H]1C(=O)N[C@H](Cc1ccccc1-c1ccccc1)C(=O)O)C1CCCCC1)C(C)C [Compound 36] (HELM PEPTIDE1{[Sar].R.V.Y.[O=C([C@@H](N[*:1])C1CCCCC1)[*:2]].H.P.[O=C(O)[C@@H](Cc1ccccc1-c1ccccc1)N[*:1]]}$$$$V2.0) : 26

Form field IC50, entry CNCC(=O)N[C@@H](CCCNC(=N)N)C(=O)N[C@H](C(=O)N[C@@H](Cc1ccc(O)cc1)C(=O)N[C@H](C(=O)N[C@@H](Cc1c[nH]cn1)C(=O)N1CCC[C@H]1C(=O)N[C@H](Cc1c(C)cccc1C)C(=O)O)C(C)C)C(C)C [Compound 8] (HELM PEPTIDE1{[Sar].R.V.Y.V.H.P.[Cc1cccc(C)c1C[C@@H](N[*:1])C(=O)O]}$$$$V2.0) : 8.5

Next:
Form field IC50, entry CNCC(=O)N[C@@H](CCCNC(=N)N)C(=O)N[C@H](C(=O)N[C@@H](Cc1ccc(O)cc1)C(=O)N[C@@H](Cc1ccc(O)cc1)C(=O)N[C@@H](Cc1c[nH]cn1)C(=O)N1CCC[C@H]1C(=O)N[C@H](Cc1cccc2ccccc12)C(=O)O)C(C)C : 3.4
